All values here come from PubChem BioAssay (NCI).

# PROTOCOL_TEXT: NCI Yeast Anticancer Drug Screen. Data for the bub3 strain (AID 167)
# COND: S. cerevisiae bub3 mutant strain, at 50.0 µM, active compounds read high
Compounds without any hit were thinned out: in the full panel of roughly 79,000, 15% have a hit.
READOUT_KIND: growth inhibition (%)
Response body: numeric value in %, unit text excluded.

Cc1ccc(C2=Nc3cccc4cccc(c34)N2)cc1 ... -2.2
O=[N+]([O-])c1cccc(-c2cc3ccccn3c2)c1 ... -1.95
CCN(CC)c1ccc(C=O)cc1 ... 13.2
CC(=O)CCCC(=O)O ... 0.45

Here is another molecule to look at.
Prompt line: For `Cc1ccc(CO)cc1` , write its growth inhibition.
Response line: -2.05

----------
Measured growth inhibition values are reported for all entries that follow.
# PROTOCOL_TEXT: NCI Yeast Anticancer Drug Screen. Data for the cln2 rad14 strain (AID 165);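 also: 0% = growth equal to vehicle treated cultures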
# COND: S. cerevisiae cln2 rad14 strain, at 50.0 µM, active compounds read high
Compounds without any hit were thinned out: in the full panel of roughly 79,000, 15% have a hit.
Response body: numeric value in %, unit text excluded.

# example entries with known answers
C=C1C(O)CC2C(O)C3(C)CCC(C)(C)C3C12O (configuration not stated) ... 15.3
CC(C)(C)N(Cc1ccccc1)C(=O)Nc1ccccc1 ... 1.35
COCC12CCC(OC)C34C5CC6(O)C(OC)CC(OC(C)=O)(C5C6OC(=O)c5ccccc5)C(C(OC)C13)C4N(C)C2 (configuration not stated) ... -8.9
CC(=O)c1c(C)[nH]c(-c2ccccc2)c1NS(=O)(=O)c1ccc(N)cc1 ... -13
c1ccn2cncc2c1 ... 23.1

Prompt line: For Cc1ccc(C(C)(O)C2CC2)cc1 (configuration not stated) , write its growth inhibition.
Response line: 18.6

Prompt line: For `CC(C)(C)C(=O)C1C(=O)c2ccccc2C1=O` , write its growth inhibition.
Response line: -35.5

Prompt line: For `Cc1cc(C)c(C(=O)c2ccccc2C(=O)O)c(C)c1` , write its growth inhibition.
Response line: -89

Prompt line: For `CCOC(=O)NCc1cccc2ccccc12` , write its growth inhibition.
Response line: -89.4

Prompt line: For `O=C(c1ccccc1)c1oc(CO)cc(=O)c1O` , write its growth inhibition.
Response line: -48.1

Prompt line: For Cc1cccc(C(=O)N(C)C(c2ccco2)P(=O)(c2ccccc2)c2ccccc2)c1 (configuration not stated) , write its growth inhibition.
Response line: 27.1

Prompt line: For `Cc1ccc(N=Cc2ccc(C(N)=S)cc2)cc1` , write its growth inhibition.
Response line: -17.4

Prompt line: For CC(C)CCOC(=O)C1C(=O)CC(c2ccccc2)C1c1ccccc1 (configuration not stated) , write its growth inhibition.
Response line: -0.15

Prompt line: For `Cc1nn(C(=O)c2cccnc2)c(-c2ccccc2)c1N=Nc1ccc(C(=O)O)cc1` , write its growth inhibition.
Response line: 29.4

Prompt line: For `C/C(=N/NC(N)=O)C1=CCCCC1` , write its growth inhibition.
Response line: 4.1

Prompt line: For `CCCCCCCCCCCCCCCCCC(=O)OCC([N+](=O)[O-])([N+](=O)[O-])[N+](=O)[O-]` , write its growth inhibition.
Response line: -19

Prompt line: For `N#Cc1c(C#N)c(-c2ccco2)n(/N=C/c2ccco2)c1N` , write its growth inhibition.
Response line: -6.75
